# STUDY_SYSTEM: extracellular region of human V158 FcγRIIIa fused with glutathione S-Transferase (GST) (human, UniProt P08637 17-208)
# Sequence (P08637 17-208 F176V): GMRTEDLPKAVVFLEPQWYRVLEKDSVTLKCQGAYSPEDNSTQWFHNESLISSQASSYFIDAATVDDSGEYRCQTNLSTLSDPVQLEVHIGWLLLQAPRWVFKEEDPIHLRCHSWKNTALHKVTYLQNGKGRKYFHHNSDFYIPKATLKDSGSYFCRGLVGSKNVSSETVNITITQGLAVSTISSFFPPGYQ
# TEST: AlphaScreen competition
MEASURED_ENDPOINT: FcγRIIIa Fold (fold vs WT)
Numbers only, in fold vs WT.

BINDER	UOM	FcγRIIIa Fold
P230A/E233D/I332E trastuzumab (antibody) heavy: DKTHTCPPCAAPDLLGGPSVFLFPPKPKDTLMISRTPEVTCVVVDVSHEDPEVKFNWYVDGVEVHNAKTKPREEQYNSTYRVVSVLTVLHQDWLNGKEYKCKVSNKALPAPEEKTISKAKGQPREPQVYTLPPSRDELTKNQVSLTCLVKGFYPSDIAVEWESNGQPENNYKTTPPVLDSDGSFFLYSKLTVDKSRWQQGNVFSCSVMHEALHNHYTQKSLSLSPGK	fold vs WT	1.87

Fill in FcγRIIIa Fold for each of the 2 binders listed.
1. S239D/A330Y/I332E/L234I trastuzumab (antibody) heavy: DKTHTCPPCPAPEILGGPDVFLFPPKPKDTLMISRTPEVTCVVVDVSHEDPEVKFNWYVDGVEVHNAKTKPREEQYNSTYRVVSVLTVLHQDWLNGKEYKCKVSNKALPYPEEKTISKAKGQPREPQVYTLPPSRDELTKNQVSLTCLVKGFYPSDIAVEWESNGQPENNYKTTPPVLDSDGSFFLYSKLTVDKSRWQQGNVFSCSVMHEALHNHYTQKSLSLSPGK
2. S239D/A330Y/I332E/K326E trastuzumab (antibody) heavy: DKTHTCPPCPAPELLGGPDVFLFPPKPKDTLMISRTPEVTCVVVDVSHEDPEVKFNWYVDGVEVHNAKTKPREEQYNSTYRVVSVLTVLHQDWLNGKEYKCKVSNEALPYPEEKTISKAKGQPREPQVYTLPPSRDELTKNQVSLTCLVKGFYPSDIAVEWESNGQPENNYKTTPPVLDSDGSFFLYSKLTVDKSRWQQGNVFSCSVMHEALHNHYTQKSLSLSPGK

1: 22.4; 2: 64.1
